Test system: Trypanosoma cruzi
method_summary: Percentage delyse against amastigote forms of Y strain of Trypanosoma cruzi at 32 uM
Type: functional
Short version: Delyse at least 60% is TRUE, less is FALSE.

Confirm if Delyse reported for the molecule c1ccc(COC2OC[C@H](Cc3ccc4c(c3)OCO4)[C@@H]2Cc2ccc3c(c2)OCO3)cc1 (stereo partly specified) is 60% or above.
TRUE

API: above_or_equal(metric=Delyse, cutoff=60%) for item "O=C1OC[C@H](Cc2ccc3c(c2)OCO3)[C@@H]1Cc1ccc2c(c1)OCO2"
TRUE

Does the reported Delyse for CN(C)CCOC1OC[C@H](Cc2ccc3c(c2)OCO3)[C@@H]1Cc1ccc2c(c1)OCO2 (stereo partly specified) fall at or above the 60% mark?
FALSE

Determine whether measured Delyse meets or exceeds 60% for CC(=O)OC1OC[C@H](Cc2ccc3c(c2)OCO3)[C@@H]1Cc1ccc2c(c1)OCO2 (stereo partly specified)
FALSE

Does the molecule "O=C(Cn1ccnc1[N+](=O)[O-])NCc1ccccc1" have recorded Delyse that is 60% or more?
TRUE

Hello, I need to know if "O=C1OC[C@H](Cc2cc3c(cc2[N+](=O)[O-])OCO3)[C@@H]1Cc1cc2c(cc1[N+](=O)[O-])OCO2" has measured Delyse not below 60%. Thanks!
FALSE

---

System: Trypanosoma cruzi
method_summary: Percentage delyse against amastigote forms of Y strain of Trypanosoma cruzi at 8 uM
Assay type: functional
Please provide measured Delyse for the entries that follow.
Form entry: value (%) — number only.

For the record CN(C)CCOC1OC[C@H](Cc2ccc3c(c2)OCO3)[C@@H]1Cc1ccc2c(c1)OCO2 (stereo partly specified) , what value of Delyse is listed for Trypanosoma cruzi?
50.8

Value wanted: Delyse (Trypanosoma cruzi) of entry c1ccc(COC2OC[C@H](Cc3ccc4c(c3)OCO4)[C@@H]2Cc2ccc3c(c2)OCO3)cc1 (stereo partly specified)
46.8

Can you look up Delyse on Trypanosoma cruzi for O=C(Cn1ccnc1[N+](=O)[O-])NCc1ccccc1 [BENZNIDAZOLE] ?
69

Please state recorded Delyse (tested on Trypanosoma cruzi) of "O=C1OC[C@H](Cc2cc3c(cc2[N+](=O)[O-])OCO3)[C@@H]1Cc1cc2c(cc1[N+](=O)[O-])OCO2"
38.9

Provide value of Delyse for this record tested with Trypanosoma cruzi: "O=C1OC[C@H](Cc2ccc3c(c2)OCO3)[C@@H]1Cc1ccc2c(c1)OCO2"
57.6

Find Delyse (Trypanosoma cruzi) for the entry CC(=O)OC1OC[C@H](Cc2ccc3c(c2)OCO3)[C@@H]1Cc1ccc2c(c1)OCO2 (stereo partly specified)
29

This collection of values is drawn from ChEMBL document CHEMBL1142828.
